Measurement description: recombinant UMI read abundance after kanamycin selection (control-corrected) (log10(CPM+1)); higher = more efficient recombination; extreme values may be limits of the assay; sequences stand for … in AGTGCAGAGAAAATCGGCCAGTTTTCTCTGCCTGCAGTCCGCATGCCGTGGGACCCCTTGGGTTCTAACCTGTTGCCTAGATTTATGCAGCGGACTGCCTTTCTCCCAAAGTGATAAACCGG…AGGTTGGTTTCACT; site = the 11-nt donor;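 note: IS621 bridge recombinase in Escherichia coli cells against a fixed T5 target plasmid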
Measured quantity: recombinant UMI read abundance (log10)
One number for each entry.

Below: 2 sequences and their reported recombinant UMI read abundance (log10).
{"Residue sequence": "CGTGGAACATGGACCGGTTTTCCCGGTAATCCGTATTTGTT (site CGTGGTACTAA)", "Measured value": 0}
{"Residue sequence": "AGCTTAGCATGGACCGGTTTTCCCGGTAATCCGTATTTGCC (site AGCTTAGCTGG)", "Measured value": 0}

For each of the sequences below, state recombinant UMI read abundance (log10).
1. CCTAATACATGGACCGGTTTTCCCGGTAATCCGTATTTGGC (site CCTAATGCTGC)
2. CCTAAGGCATGGACCGGTTTTCCCGGTAATCCGTATTTGAT (site CCTAAAGCTAT)
3. ACCCGGGCATGGACCGGTTTTCCCGGTAATCCGTATTTGAC (site ACCCGGGCTGT)

0
0
2.02

----------
Would you mind telling me the reported recombinant UMI read abundance (log10) of each entry?
Measurement description: recombinant UMI read abundance after kanamycin selection (control-corrected) (log10(CPM+1)); higher = more efficient recombination; extreme values may be limits of the assay; sequences stand for … in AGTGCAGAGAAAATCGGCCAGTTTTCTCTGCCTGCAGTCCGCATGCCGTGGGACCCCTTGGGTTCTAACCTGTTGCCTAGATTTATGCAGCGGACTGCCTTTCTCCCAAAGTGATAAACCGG…AGGTTGGTTTCACT; site = the 11-nt donor
One number for each entry.

{"Residue sequence": "AAGAATTCATGGACCGGTTTTCCCGGTAATCCGTATTTGTA (site AAGAATTCTTA)", "Measured quantity": "recombinant UMI read abundance (log10)", "Measured value": 2.33}
{"Residue sequence": "CGATAGACATGGACCGGTTTTCCCGGTAATCCGTATTTGCC (site GGATAGACTGG)", "Measured quantity": "recombinant UMI read abundance (log10)", "Measured value": 0}
{"Residue sequence": "GGGTACGCATGGACCGGTTTTCCCGGTAATCCGTATTTGTA (site GGGTACGCTTA)", "Measured quantity": "recombinant UMI read abundance (log10)", "Measured value": 2.47}

# map each sequence to its recombinant UMI read abundance (log10)
1. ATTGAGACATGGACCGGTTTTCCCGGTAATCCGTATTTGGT (site ACTGAGACTAC)
2. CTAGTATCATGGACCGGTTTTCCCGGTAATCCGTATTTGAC (site CTTGTATCTGT)
3. GCTACTGCATGGACCGGTTTTCCCGGTAATCCGTATTTGCT (site GCTACTGCTAG)
4. ATGGAGGCATGGACCGGTTTTCCCGGTAATCCGTATTTGGC (site ATGTAGGCTGC)

1: 0.972; 2: 1.57; 3: 1.64; 4: 1.48

Give recombinant UMI read abundance (log10) for all sequences that follow.
1. CTAGTAGCATGGACCGGTTTTCCCGGTAATCCGTATTTGAA (site CTAGTATCTGT)
2. TAATCAGCATGGACCGGTTTTCCCGGTAATCCGTATTTGGG (site TAATTAGCTCC)
3. AGGCACGCATGGACCGGTTTTCCCGGTAATCCGTATTTGGG (site ACGCACGCTCC)
4. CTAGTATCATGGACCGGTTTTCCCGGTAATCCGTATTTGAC (site CAAATATCTGT)
5. GTTCTACCATGGACCGGTTTTCCCGGTAATCCGTATTTGCC (site GTTCTACCTGG)

1: 0; 2: 0.0124; 3: 0.183; 4: 0; 5: 0

Give one value of recombinant UMI read abundance (log10) per listed sequence.
1. CATGCGCCATGGACCGGTTTTCCCGGTAATCCGTATTTGTG (site CATGCGCCTCA)
2. GAGGAGGCATGGACCGGTTTTCCCGGTAATCCGTATTTGTG (site GCGGAGGCTCA)
3. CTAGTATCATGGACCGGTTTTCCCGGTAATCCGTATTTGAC (site CTAGGATCTGC)

[0.0238, 0.367, 0]

Would you mind listing recombinant UMI read abundance (log10) for each of the following sequences?
1. ATTAGAACATGGACCGGTTTTCCCGGTAATCCGTATTTGAG (site ATTAGAACTCT)
2. GTTGAGTCATGGACCGGTTTTCCCGGTAATCCGTATTTGAC (site GTTGAGTCTGT)
3. GTTCATGCATGGACCGGTTTTCCCGGTAATCCGTATTTGGT (site GTTCATGCTAC)

1: 1.22; 2: 2.71; 3: 0.717
